Hey, just so you know, these numbers are from patent US8703936B2.

# assay notes: Potential background reaction of BARAC with glutathione
# Format: physicochemical
# condition details: 5 mM glutathione in CD3CN:D2O (1:2), 2 mM BARAC, rt
assay endpoint: half-life at 2 mM (h)
Field format: number, assumed h, no unit text.

Dear colleague, I am looking for the recorded half-life at 2 mM of the following molecule: O=C1c2ccccc2C#Cc2ccccc2N1CC1CC(c2ccc(CO)cc2)=NO1 (stereo not shown) 24
